test: Human plasma half-life assay; type: in vitro ADME; settings: human plasma, 37° C., LC-MS; read-out: Human Plasma T½ (converted)
Where no end group is shown, it is not given here. [ ]: non-standard residue; d: D form. The star is where a group is joined. Pip = O=C(O)[C@@H]1CCCCN1; Ac6c = NC1(C(=O)O)CCCCC1; Nle = CCCC[C@H](N)C(=O)O; X1 = CCCN1C(=O)CC(*)C1=O; Aib = CC(C)(N)C(=O)O
Recorded Metric: half-life at 0.1 mg/ml (h)
Number only, in h; omit the unit.

Would you please look over these solved cases?
> print(dat)
                                  substance  value.unit  number
1  Y[Aib]EGTF[Ac6c]SDYSIAMDKIHQQDFVNWLLAQKGKKC(X1)DWKHNITQ-OH [Example 86, [Aib^2, A6c^7, Cys(Psu)^34]hGIP(1-42)-OH]           h     4.2
2  Y[Aib]EGTF[Ac6c]SDYSIAMDKIHQQDFVNWLLAQKGKKNDC(X1)KHNITQ-OH [Example 81, [Aib^2, A6c^7, Cys(Psu)^36]hGIP(1-42)-OH]           h     8.2
3  Y[Aib]EGTFISDY[Aib]IA[Nle]DKIHQQDFVNWLLAQKGKKNDWKHNITQ-OH [Example 45, (Aib^2, 11, Nle^14)hGIP(1-42)-OH]           h    18.2
4  Y[Aib]EGTFISDY[Aib]IA[Ac6c]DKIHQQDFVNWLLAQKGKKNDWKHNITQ-OH [Example 41, (Aib^2, 11, A6c^14)hGIP(1-42)-OH]           h    15.9
5  YAPGTFISDYSIA[Ac6c]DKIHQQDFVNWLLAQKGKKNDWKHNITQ-OH [Example 91, (Pro^3, A6c^14)hGIP(1-42)-OH]           h    13.4

Please examine the following record next.
Need half-life at 0.1 mg/ml of YA[Pip]GTFISDYSI[Aib]MDKIHQQDFVNWLLAQKGKKNDWKHNITQ [Example 65, (hPro^3, Aib^13)hGIP(1-42)-OH] , thanks.
14.3

====

Test: Rat plasma half-life assay
Type: in vitro ADME
Details: rat plasma, 37° C., LC-MS; read-out: Rat Plasma T½ (converted)
Experimental: B. Human and Rat Plasma Half-Life Assay 50 μL was removed at various times, like at 0, 1, 2, 3, 4, 8, 24, 32, 48, 56, 72 hours, mixed with 5 μL formic acid and 150 μL acetonitrile in a microcentrifuge tube, vertexed, and centrifuged for 10 minutes at 10K rpm. The supernatant was transferred to an injection vial and analyzed by LC-MS. The LC-MS system consisted of an API4000 mass spectrometer with an ESI probe. Positive ion mode and full scan detection were used. […]
Where no end group is shown, it is not given here. [ ]: non-standard residue; d: D form. The star is where a group is joined. Tic = O=C(O)[C@@H]1Cc2ccccc2CN1; Ac6c = NC1(C(=O)O)CCCCC1; Nle = CCCC[C@H](N)C(=O)O; X1 = CCCN1C(=O)CC(*)C1=O; Aib = CC(C)(N)C(=O)O
Recorded Metric: half-life at 0.1 mg/ml (min)
Number only, in min; omit the unit.

Would you please look over these solved cases?
> print(dat)
                                  substance  number
1  Y[Aib]EGTF[Ac6c]SDYSIAMDKIHQQDFVNWLLAQKGKKNC(X1)WKHNITQ-OH [Example 85, [Aib^2, A6c^7, Cys(Psu)^35]hGIP(1-42)-OH]     210
2  Y[Aib]EGTF[Ac6c]SDYSI[Aib][Nle]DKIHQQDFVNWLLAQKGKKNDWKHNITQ-OH [Example 21, (Aib^2, 13, A6c^7, Nle^14)hGIP(1-42)-OH]     738

Please examine the following record next.
Need half-life at 0.1 mg/ml of YA[Tic]GTFISDYSI[Aib]MDKIHQQDFVNWLLAQKGKKNDWKHNITQ [Example 66, (Tic^3, Aib^13)hGIP(1-42)-OH] , thanks.
528
